Origin of the recorded values: patent US20220372014A1

Target: MIF (Homo sapiens, UniProt P14174)
Sequence (P14174 whole entry): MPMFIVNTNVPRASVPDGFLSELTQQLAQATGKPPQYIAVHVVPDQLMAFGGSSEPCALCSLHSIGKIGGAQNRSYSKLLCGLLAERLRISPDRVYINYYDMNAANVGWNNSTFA
Test: Nuclease assay of Example 3 (MIF inhibitory activity, Table 4)
Format: biochemical
Design: concentration or dose not given beside the values
Details: nuclease assay of Example 3
(%) inhibition of MIF nuclease activity values for the molecules below.
Answer with a number only, understood to be in %.

COc1cc(CC[C@H]2OC(=O)[C@@H]3CCCCN3C(=O)C(=O)C(C)(C)COC(=O)C=CCCN(C)C(=O)[C@@H]3CCCN3C(=O)[C@H](COC(C)(C)C)N(C)C(=O)C(c3ccccc3)NC(=O)[C@H](C)N(C)C(=O)COc3cccc2c3)cc(OC)c1OC (some centres unmarked) [compound 115]	8.7

Please turn your attention to the following entry.
Short answer for COc1ccc(CC[C@H]2OC(=O)[C@@H]3CCCCN3C(=O)C(=O)C(C)(C)COC(=O)C=CCCN(C)C(=O)[C@@H](CC(C)C)NC(=O)[C@H](COC(C)(C)C)N(C)C(=O)[C@H](Cc3ccc4ccccc4c3)NC(=O)[C@H](C)N(C)C(=O)COc3cccc2c3)cc1OC [compound 22] : (%) inhibition of MIF nuclease activity was 61.8
